# test.name: Restrictive medium S. cerevisiae growth inhibition, OD615, pilot screen of yeast lifespan reduction project, restrictive growth control (AID 706);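 note: modified DeaD lifespan yeast strain shifted to restrictive glucose medium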
# test.parameters: OD615, 48 h, at 10 µM, active compounds read high
Activity calls are given as the source filed them.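 Rule for the calls: active = growth inhibition above a set limit, 3 SD over mean compound inhibition, in both replicates (cut at about 43% in these data); inconclusive = above the limit in only one replicate; inactive = at or below the limit in both replicates.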
I'd appreciate it if you could supply growth inhibition values for the items below.

**Q:** Annotate the compound CC1CCc2sc3nc(N4CCN(CCO)CC4)n4ncnc4c3c2C1 (stereo unspecified) with its measured growth inhibition.
**A:** 7.57% (inactive)

**Q:** Annotate the compound O=C(CNS(=O)(=O)c1ccc(C(=O)N2CCCCC2)cc1)N1CCCCC1 with its measured growth inhibition.
**A:** -18.1% (inactive)

**Q:** Annotate the compound CC(=O)N1CCN(c2ccc(NCc3ccc(F)cc3)cc2)CC1 with its measured growth inhibition.
**A:** 0.705% (inactive)

**Q:** Annotate the compound COc1ccc(CCNC(=O)CSc2nnnn2-c2ccccc2)cc1 with its measured growth inhibition.
**A:** -9.2% (inactive)

**Q:** Annotate the compound CCCOC(=O)c1ccc(OCC(O)CN2C(=O)NC(C)(C)C2=O)cc1 (stereo unspecified) with its measured growth inhibition.
**A:** 1.78% (inactive)

**Q:** Annotate the compound CCc1cccc(C)c1NC(=O)CCCC(=O)O with its measured growth inhibition.
**A:** -1.56% (inactive)
